biological target: cholesterol oxidase I (Brevibacterium sterolicum); assay: Substrate specificity of cholesterol oxidase I (relative activity on sterol substrates); type: biochemical, Brevibacterium sterolicum ATCC 21387; details: cholesterol = 100
Sequence (P22637 46-552): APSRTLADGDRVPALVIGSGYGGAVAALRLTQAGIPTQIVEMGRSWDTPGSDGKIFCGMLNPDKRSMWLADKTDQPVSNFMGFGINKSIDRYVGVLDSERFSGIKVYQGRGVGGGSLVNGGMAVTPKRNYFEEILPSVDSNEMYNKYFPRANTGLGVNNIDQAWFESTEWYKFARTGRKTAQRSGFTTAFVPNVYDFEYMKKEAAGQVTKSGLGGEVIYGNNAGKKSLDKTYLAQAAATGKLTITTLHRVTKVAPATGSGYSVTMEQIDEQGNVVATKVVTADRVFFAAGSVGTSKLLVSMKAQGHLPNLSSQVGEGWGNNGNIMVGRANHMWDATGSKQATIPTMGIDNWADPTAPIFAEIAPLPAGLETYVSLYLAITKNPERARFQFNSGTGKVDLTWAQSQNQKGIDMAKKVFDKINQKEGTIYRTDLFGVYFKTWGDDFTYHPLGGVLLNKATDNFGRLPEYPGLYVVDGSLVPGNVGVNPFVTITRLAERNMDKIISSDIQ
quantity name: Relative Activity (%) of cholesterol oxidase I on substrate
Record the value in %, omitting the unit from your answer.

(Q) Which Relative Activity (%) of cholesterol oxidase I on substrate value is on record for C[C@]12CC[C@@H](O)C[C@@H]1CC[C@@H]1[C@@H]2CC[C@]2(C)C(=O)CC[C@@H]12 [Androsterone] ?
(A) 0

(Q) # Relative Activity (%) of cholesterol oxidase I on substrate lookup, item CCCCC/C=C\C/C=C\CCCCCCCC(=O)O[C@H]1CC[C@@]2(C)C(=CC[C@H]3[C@@H]4CC[C@H]([C@H](C)CCCC(C)C)[C@@]4(C)CC[C@@H]32)C1 [Cholesterol linoleate]
(A) 0

(Q) # get_value(readout='Relative Activity (%) of cholesterol oxidase I on substrate', item= CC(=O)[C@H]1CC[C@H]2[C@@H]3CC=C4C[C@@H](O)CC[C@]4(C)[C@H]3CC[C@]12C [Pregnenolone] )
(A) 22.4

----------
target: cholesterol oxidase I (Brevibacterium sterolicum); assay: Substrate specificity of cholesterol oxidase I (relative activity on sterol substrates); format: biochemical, Brevibacterium sterolicum ATCC 21387; conditions: cholesterol = 100
Recorded Relative Activity (%) of cholesterol oxidase I on substrate, one value per entry.
Kindly answer with a numeric value in %, unit omitted.

C=C1CC[C@H](O)C/C1=C/C=C1\CCC[C@]2(C)[C@@H]([C@H](C)CCCC(C)C)CC[C@@H]12	0
CC(C)=CCC[C@@H](C)[C@H]1CC[C@@]2(C)C3=C(CC[C@]12C)[C@@]1(C)CC[C@H](O)C(C)(C)[C@@H]1CC3	0

(Q) Relative Activity (%) of cholesterol oxidase I on substrate for `CC[C@H](/C=C/[C@@H](C)[C@H]1CC[C@H]2[C@@H]3CC=C4C[C@@H](O)CC[C@]4(C)[C@H]3CC[C@]12C)C(C)C` ?
(A) 10.0

----------
system: cholesterol oxidase II; assay: Substrate specificity of cholesterol oxidase II (relative activity on sterol substrates); format: biochemical, Brevibacterium sterolicum ATCC 21387; details: cholesterol = 100
We begin with a simple list: items and their reported Relative Activity (%) of cholesterol oxidase II on substrate.
Response body: numeric value in %, unit text excluded.

Consider the reported Relative Activity (%) of cholesterol oxidase II on substrate for these molecules:
C[C@]12CC[C@H](O)CC1=CC[C@@H]1[C@@H]2CC[C@]2(C)C(=O)CC[C@@H]12 [Dehydroisoandrosterone]	13.0
CCCCC/C=C\C/C=C\CCCCCCCC(=O)O[C@H]1CC[C@@]2(C)C(=CC[C@H]3[C@@H]4CC[C@H]([C@H](C)CCCC(C)C)[C@@]4(C)CC[C@@H]32)C1 [Cholesterol linoleate]	0

# context switch: different molecule, same Relative Activity (%) of cholesterol oxidase II on substrate
(Q) Quick check: Relative Activity (%) of cholesterol oxidase II on substrate on cholesterol oxidase II, item C[C@]12CC[C@@H](O)C[C@@H]1CC[C@@H]1[C@@H]2CC[C@]2(C)C(=O)CC[C@@H]12 [Androsterone] ?
(A) 0

----------
test system: cholesterol oxidase II; assay: Substrate specificity of cholesterol oxidase II (relative activity on sterol substrates); format: biochemical, Brevibacterium sterolicum ATCC 21387; conditions: cholesterol = 100
quantity name: Relative Activity (%) of cholesterol oxidase II on substrate
Please respond with the number in % and leave the unit unwritten.

Solved cases below.
C=C1CC[C@H](O)C/C1=C/C=C1\CCC[C@]2(C)[C@@H]([C@H](C)CCCC(C)C)CC[C@@H]12	0
CC[C@H](CC[C@@H](C)[C@H]1CC[C@H]2[C@@H]3CC=C4C[C@@H](O)CC[C@]4(C)[C@H]3CC[C@]12C)C(C)C	82.0
CC(=O)[C@H]1CC[C@H]2[C@@H]3CC=C4C[C@@H](O)CC[C@]4(C)[C@H]3CC[C@]12C	32.9
CC[C@H](/C=C/[C@@H](C)[C@H]1CC[C@H]2[C@@H]3CC=C4C[C@@H](O)CC[C@]4(C)[C@H]3CC[C@]12C)C(C)C	64.4
CC(C)CCC[C@@H](C)[C@H]1CC[C@H]2[C@@H]3CC=C4C[C@@H](O)CC[C@]4(C)[C@H]3CC[C@]12C	100

(Q) # get_value(readout='Relative Activity (%) of cholesterol oxidase II on substrate', item= `CC(C)=CCC[C@@H](C)[C@H]1CC[C@@]2(C)C3=C(CC[C@]12C)[C@@]1(C)CC[C@H](O)C(C)(C)[C@@H]1CC3` )
(A) 0

----------
molecular target: cholesterol oxidase I (Brevibacterium sterolicum); assay: Substrate specificity of cholesterol oxidase I (relative activity on sterol substrates); format: biochemical, Brevibacterium sterolicum ATCC 21387; settings: cholesterol = 100
quantity name: Relative Activity (%) of cholesterol oxidase I on substrate
Express the result in % but write the number alone.

C[C@]12CC[C@@H]3c4ccc(O)cc4CC[C@H]3[C@@H]1CC[C@@H]2O	0
CC(C)CCC[C@@H](C)[C@H]1CC[C@H]2[C@@H]3CC=C4C[C@@H](O)CC[C@]4(C)[C@H]3CC[C@]12C	100
C[C@]12CC[C@H](O)CC1=CC[C@@H]1[C@@H]2CC[C@]2(C)C(=O)CC[C@@H]12 [Dehydroisoandrosterone]	41.4

(Q) Can you look up Relative Activity (%) of cholesterol oxidase I on substrate on cholesterol oxidase I (Brevibacterium sterolicum) for `CC[C@H](CC[C@@H](C)[C@H]1CC[C@H]2[C@@H]3CC=C4C[C@@H](O)CC[C@]4(C)[C@H]3CC[C@]12C)C(C)C` ?
(A) 19.7
